- System: rat ovarian aromatase
- method-summary: Aromatase inhibition in vivo in rats (ovarian aromatase activity)
- test-parameters: PMSG-treated adult female rats; 30 mg/kg p.o.; ovaries taken 24 hours later
Please respond with reported % Aromatase inhibition at 30 mg/kg p.o. for every item in the list.
Numbers only, in %.

>>> reported_result("C[C@]12C=CC(=O)C=C1CC[C@@H]1[C@@H]2CC[C@]2(C)C(=O)CC[C@@H]12 [androsta-1,4-dien-3,17-dione, reference compound]")
37

Attention now turns to another entry.
Given the molecule `C[C@]12CCC(=O)C(N)=C1C=C[C@@H]1[C@@H]2CC[C@]2(C)C(=O)CC[C@@H]12` , what is its reported % Aromatase inhibition at 30 mg/kg p.o.?
70

###

- measured-target: human placental aromatase (Homo sapiens)
- Construct: The enzyme system was isolated from the microsomal fraction of human placental tissue
- Sequence (P11511 1-503): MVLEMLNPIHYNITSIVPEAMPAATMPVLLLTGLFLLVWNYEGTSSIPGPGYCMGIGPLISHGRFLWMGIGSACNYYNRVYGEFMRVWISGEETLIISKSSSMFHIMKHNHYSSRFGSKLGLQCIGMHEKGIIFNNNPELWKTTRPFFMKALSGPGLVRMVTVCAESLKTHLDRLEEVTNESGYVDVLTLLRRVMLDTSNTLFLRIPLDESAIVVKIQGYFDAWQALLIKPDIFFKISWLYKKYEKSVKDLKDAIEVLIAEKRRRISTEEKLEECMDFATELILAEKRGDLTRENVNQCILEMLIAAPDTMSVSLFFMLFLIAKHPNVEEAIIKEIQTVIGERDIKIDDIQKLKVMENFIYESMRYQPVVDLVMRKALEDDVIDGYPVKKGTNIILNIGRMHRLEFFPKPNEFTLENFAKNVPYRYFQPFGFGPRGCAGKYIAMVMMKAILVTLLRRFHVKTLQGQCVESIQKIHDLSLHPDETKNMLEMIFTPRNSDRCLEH
- method-summary: Aromatase inhibition in vitro (human placental aromatase, 3H2O release assay)
measured-attribute: IC50 (nM)
Numbers only, in nM.

>>> reported_result("C[C@]12CCC(=O)C(N)=C1C=C[C@@H]1[C@@H]2CC[C@]2(C)C(=O)CC[C@@H]12 [FCE 24210, 4-aminoandrosta-4,6-dien-3,17-dione]")
148
>>> reported_result("C[C@]12CCC(=O)C(O)=C1CC[C@@H]1[C@@H]2CC[C@]2(C)C(=O)CC[C@@H]12 [Example 4-OH-A, 4-hydroxyandrost-4-en-3,17-dione, reference compound]")
44

Attention now turns to another entry.
Given the molecule C[C@]12C=CC(=O)C=C1CC[C@@H]1[C@@H]2CC[C@]2(C)OC(=O)CC[C@@H]12 [Δ^1 -testololactone, reference compound] , what is its reported IC50?
8240
